Data origin: PubChem BioAssay (NCATS)

system: ECU; experiment: qHTS profiling for inhibitors of Plasmodium falciparum proliferation (AID 504749); further: nearly all actives have a fitted effect of over 60% in size; details: P. falciparum in erythrocytes, SYBR Green DNA, 72 h; series mostly up to 28.7 µM
Inconclusive results are not listed. The source made the active and inactive calls. The call rests on the fitted dose curve; in most records, active means well fitted inhibition curve with a large enough effect; inconclusive means small, poorly fitted or top-dose-only effect; inactive means flat fitted curve, though single readings scatter.
Measurement Type: outcome

Would you please look over these solved cases?
| Compound | outcome |
| --- | --- |
| Cc1ncc(C[n+]2csc(CCO)c2C)c(N)n1 | inactive |
| O=P(O)(O)OC[C@H]1O[C@](O)(COP(=O)(O)O)[C@@H](O)[C@@H]1O | inactive |
| CC(C)c1ncc([N+](=O)[O-])n1C | inactive |
| O=[N+]([O-])c1c(Cl)cccc1-c1c[nH]cc1Cl | inactive |
| OC1OC[C@@H](O)[C@H](O)[C@@H]1O (stereo partly specified) | inactive |

I'd like to know its outcome. The compound in question is NC(N)=NCC1COc2ccccc2O1 (stereo unspecified) inactive
